Test system: 945468-187-T-J3-PDC spheroids with HUVEC/MSC, viability
Assay: Anticancer human tumor 945468-187-T-J3-PDC patient-derived rectal carcinoma cell line growth inhibition [PI3K]
Details: second compound 0.316 µM; first compound 0.0316 µM; hits give low values
Parameter viability, T/C: see the listing below.
Give the number; % is assumed, so skip it.

Solved cases below.
>  <molecule>
CC(Cn1ccc(-c2ccc(C#N)c(Cl)c2)n1)NC(=O)c1cc(C(C)O)[nH]n1 (stereo unspecified) + CC(Nc1ccc2c(c1)OCCn1cc(N3C(=O)OCC3C(F)F)nc1-2)C(N)=O

>  <readout kind>
viability, T/C

>  <endpoint unit>
%

>  <meas value>
107

$$$$
>  <molecule>
C=CC(=O)N1CCN(c2nc(=O)n(-c3c(C)ccnc3C(C)C)c3nc(-c4c(O)cccc4F)c(F)cc23)C(C)C1 (stereo unspecified) + CC(Nc1ncnc2nc[nH]c12)c1cc2cccc(Cl)c2c(=O)n1-c1ccccc1

>  <readout kind>
viability, T/C

>  <endpoint unit>
%

>  <meas value>
94.8

$$$$

From here, focus on the item given below.
Let me check: C#Cc1c(F)ccc2cc(O)cc(-c3ncc4c(N5CC6CCC(C5)N6)nc(OCC56CCCN5CC(F)C6)nc4c3F)c12 (stereo unspecified) + Cc1nc(NC(=O)N2CCCC2C(N)=O)sc1-c1ccnc(C(C)(C)C(F)(F)F)c1 , system 945468-187-T-J3-PDC spheroids with HUVEC/MSC, viability, measured viability, T/C is 109

====

System: 945468-187-T-J3-PDC spheroids with HUVEC/MSC, viability
Test: Anticancer human tumor 945468-187-T-J3-PDC cell line growth inhibition [PI3K];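 further: spheroids exposed to agents for 7 days before viability read; 100% = DMSO vehicle control viability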
Conditions: compound 1 µM; hits give low values
We begin with a simple list: items and their reported viability, T/C.

Previously resolved entries follow.
>  <compound>
CC(Nc1ccc2c(c1)OCCn1cc(N3C(=O)OCC3C(F)F)nc1-2)C(N)=O (stereo unspecified)

>  <viability, T/C>
73% [middle of 7 runs]

$$$$
>  <compound>
C[C@@H](NC(=O)c1ncnc(N)c1Cl)c1ncc(C(=O)Nc2cc(C(F)(F)F)c(Cl)cn2)s1

>  <viability, T/C>
105% [middle of 4 runs]

$$$$
>  <compound>
CCN1CCN(Cc2ccc(Nc3ncc(F)c(-c4cc(F)c5nc(C)n(C(C)C)c5c4)n3)nc2)CC1

>  <viability, T/C>
99.2% [middle of 4 runs]

$$$$
>  <compound>
CCCS(=O)(=O)Nc1ccc(F)c(C(=O)c2c[nH]c3ncc(-c4ccc(Cl)cc4)cc23)c1F

>  <viability, T/C>
102% [middle of 4 runs]

$$$$
>  <compound>
CC(Cn1ccc(-c2ccc(C#N)c(Cl)c2)n1)NC(=O)c1cc(C(C)O)[nH]n1 (stereo unspecified)

>  <viability, T/C>
99.5% [middle of 4 runs]

$$$$

// next item, viability, T/C requested
Known value: 945468-187-T-J3-PDC spheroids with HUVEC/MSC, viability viability, T/C of the compound CC(Nc1ncnc2nc[nH]c12)c1cc2cccc(Cl)c2c(=O)n1-c1ccccc1 (stereo unspecified) equals 99.5% [middle of 8 runs]

====

// values below are reported viability, T/C
System: 945468-187-T-J3-PDC spheroids with HUVEC/MSC, viability
Assay: Anticancer human tumor 945468-187-T-J3-PDC cell line growth inhibition [PI3K];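 further: spheroids exposed to agents for 7 days before viability read; 100% = DMSO vehicle control viability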
Conditions: second compound 0.01 µM; first compound 1 µM; hits give low values
From the text: Combinatorial screen of targeted agents with the PI3K inhibitors inavolisib, alpelisib, duvelisib, and copanlisib in multi-cell type tumor spheroids A high-throughput screen of multi-cell type tumor spheroids was designed to identify active combinations of targeted small molecules and PI3K pathway inhibitors. […] Compounds. […] If the clinical Cmax for an agent had not been determined, the highest concentration tested was 10 microM. […]
Entry rule: numbers only, all in %.

The following compounds have reported results that may help.
>  <compound>
Cn1ncc(Cl)c1-c1cc(C(=O)NC(CN)Cc2cccc(F)c2)sc1Cl (stereo not drawn) + CC(Nc1ccc2c(c1)OCCn1cc(N3C(=O)OCC3C(F)F)nc1-2)C(N)=O

>  <viability, T/C (%)>
86.2

$$$$
>  <compound>
CC1(C)CCC(CN2CCN(c3ccc(C(=O)NS(=O)(=O)c4ccc(NCC5CCOCC5)c([N+](=O)[O-])c4)c(Oc4cnc5[nH]ccc5c4)c3)CC2)=C(c2ccc(Cl)cc2)C1 + COc1c(OCCCN2CCOCC2)ccc2c3n(c(=NC(=O)c4cnc(N)nc4)nc12)CCN3

>  <viability, T/C (%)>
97.3

$$$$

With those in mind, consider the next compound.
So for CNC(=O)c1ccc(N2C(=S)N(c3ccc(C#N)c(C(F)(F)F)c3)C(=O)C2(C)C)cc1F + CC(Nc1ccc2c(c1)OCCn1cc(N3C(=O)OCC3C(F)F)nc1-2)C(N)=O , the logged viability, T/C turned out to be 129

====

System: 945468-187-T-J3-PDC spheroids with HUVEC/MSC, viability
Test: Anticancer human tumor 945468-187-T-J3-PDC cell line growth inhibition [PI3K];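 further: spheroids exposed to agents for 7 days before viability read; 100% = DMSO vehicle control viability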
Conditions: second compound 0.00316 µM; first compound 0.0316 µM; hits give low values
Catalogue of viability, T/C values

>  <compound>
C[C@@H](NC(=O)c1ncnc(N)c1Cl)c1ncc(C(=O)Nc2cc(C(F)(F)F)c(Cl)cn2)s1 + COc1c(OCCCN2CCOCC2)ccc2c3n(c(=NC(=O)c4cnc(N)nc4)nc12)CCN3

>  <viability, T/C>
89.2%

$$$$

The compound identified as CNC(=O)c1ccc(N2C(=S)N(c3ccc(C#N)c(C(F)(F)F)c3)C(=O)C2(C)C)cc1F + CC(Nc1ccc2c(c1)OCCn1cc(N3C(=O)OCC3C(F)F)nc1-2)C(N)=O registered its viability, T/C at 92.4%

GET /value?item= CC(Cn1ccc(-c2ccc(C#N)c(Cl)c2)n1)NC(=O)c1cc(C(C)O)[nH]n1 (stereo not given) + COc1c(OCCCN2CCOCC2)ccc2c3n(c(=NC(=O)c4cnc(N)nc4)nc12)CCN3 &field=viability, T/C returns 96.6%

viability, T/C recorded for this compound, CCCS(=O)(=O)Nc1ccc(F)c(C(=O)c2c[nH]c3ncc(-c4ccc(Cl)cc4)cc23)c1F + COc1c(OCCCN2CCOCC2)ccc2c3n(c(=NC(=O)c4cnc(N)nc4)nc12)CCN3 , is 106%

Looking up C#Cc1c(F)ccc2cc(O)cc(-c3ncc4c(N5CC6CCC(C5)N6)nc(OCC56CCCN5CC(F)C6)nc4c3F)c12 (stereo not given) + CC(Nc1ccc2c(c1)OCCn1cc(N3C(=O)OCC3C(F)F)nc1-2)C(N)=O , I see its viability, T/C listed as 94%

Record CCN1CCN(Cc2ccc(Nc3ncc(F)c(-c4cc(F)c5nc(C)n(C(C)C)c5c4)n3)nc2)CC1 + CC(Nc1ccc2c(c1)OCCn1cc(N3C(=O)OCC3C(F)F)nc1-2)C(N)=O , field viability, T/C: 98%

For reference, reported viability, T/C for CC1(C)CCC(Nc2ncc(C(F)(F)F)c(-c3c[nH]c4c(P(C)(C)=O)c(C#N)ccc34)n2)CN1 (stereo not given) + COc1c(OCCCN2CCOCC2)ccc2c3n(c(=NC(=O)c4cnc(N)nc4)nc12)CCN3 stands at 55.6%

viability, T/C reported for this compound CC1(C)CCC(CN2CCN(c3ccc(C(=O)NS(=O)(=O)c4ccc(NCC5CCOCC5)c([N+](=O)[O-])c4)c(Oc4cnc5[nH]ccc5c4)c3)CC2)=C(c2ccc(Cl)cc2)C1 + CC(Nc1ccc2c(c1)OCCn1cc(N3C(=O)OCC3C(F)F)nc1-2)C(N)=O : 96.8%

Reported viability, T/C for CCN1CCN(Cc2ccc(Nc3ncc(F)c(-c4cc(F)c5nc(C)n(C(C)C)c5c4)n3)nc2)CC1 + COc1c(OCCCN2CCOCC2)ccc2c3n(c(=NC(=O)c4cnc(N)nc4)nc12)CCN3 was 80.5%

Value of measured viability, T/C for the entry CNC(=O)c1ccc(N2C(=S)N(c3ccc(C#N)c(C(F)(F)F)c3)C(=O)C2(C)C)cc1F + COc1c(OCCCN2CCOCC2)ccc2c3n(c(=NC(=O)c4cnc(N)nc4)nc12)CCN3 : 102%

====

Each item that follows carries a reported viability, T/C.
Tested on: 945468-187-T-J3-PDC spheroids with HUVEC/MSC, viability
Test: Anticancer human tumor 945468-187-T-J3-PDC cell line growth inhibition [PI3K];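 further: spheroids exposed to agents for 7 days before viability read; 100% = DMSO vehicle control viability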
Details: second compound 0.1 µM; first compound 0.316 µM; hits give low values
Kindly provide the numeric value in % only, without the unit symbol.

Some solved cases for reference:
>  <compound>
CNC(=O)c1ccc(N2C(=S)N(c3ccc(C#N)c(C(F)(F)F)c3)C(=O)C2(C)C)cc1F + COc1c(OCCCN2CCOCC2)ccc2c3n(c(=NC(=O)c4cnc(N)nc4)nc12)CCN3

>  <viability, T/C / %>
46.2

$$$$
>  <compound>
Cn1ncc(Cl)c1-c1cc(C(=O)NC(CN)Cc2cccc(F)c2)sc1Cl (stereo unspecified) + Cc1nc(NC(=O)N2CCCC2C(N)=O)sc1-c1ccnc(C(C)(C)C(F)(F)F)c1

>  <viability, T/C / %>
93.5

$$$$
>  <compound>
CC(Cn1ccc(-c2ccc(C#N)c(Cl)c2)n1)NC(=O)c1cc(C(C)O)[nH]n1 (stereo unspecified) + CC(Nc1ncnc2nc[nH]c12)c1cc2cccc(Cl)c2c(=O)n1-c1ccccc1

>  <viability, T/C / %>
89.5

$$$$

Briefly, viability, T/C measured for Cn1nccc1Nc1nccc(-c2ccn(C(CO)c3ccc(Cl)c(F)c3)c(=O)c2)n1 (stereo unspecified) + Cc1nc(NC(=O)N2CCCC2C(N)=O)sc1-c1ccnc(C(C)(C)C(F)(F)F)c1 : 110

Entry CC1(C)CCC(CN2CCN(c3ccc(C(=O)NS(=O)(=O)c4ccc(NCC5CCOCC5)c([N+](=O)[O-])c4)c(Oc4cnc5[nH]ccc5c4)c3)CC2)=C(c2ccc(Cl)cc2)C1 + COc1c(OCCCN2CCOCC2)ccc2c3n(c(=NC(=O)c4cnc(N)nc4)nc12)CCN3 — recorded viability, T/C = 50.4

Quick note, viability, T/C for Cn1nccc1Nc1nccc(-c2ccn(C(CO)c3ccc(Cl)c(F)c3)c(=O)c2)n1 (stereo unspecified) + CC(Nc1ncnc2nc[nH]c12)c1cc2cccc(Cl)c2c(=O)n1-c1ccccc1 landed at 113

Kindly note the recorded viability, T/C for C#Cc1c(F)ccc2cc(O)cc(-c3ncc4c(N5CC6CCC(C5)N6)nc(OCC56CCCN5CC(F)C6)nc4c3F)c12 (stereo unspecified) + CC(Nc1ncnc2nc[nH]c12)c1cc2cccc(Cl)c2c(=O)n1-c1ccccc1 , which is 99.8

// viability, T/C value for CC1(C)CCC(Nc2ncc(C(F)(F)F)c(-c3c[nH]c4c(P(C)(C)=O)c(C#N)ccc34)n2)CN1 (stereo unspecified) + CC(Nc1ncnc2nc[nH]c12)c1cc2cccc(Cl)c2c(=O)n1-c1ccccc1 : 54.9

Lab book: viability, T/C of CC(C)NCC(C(=O)N1CCN(c2ncnc3c2C(C)CC3O)CC1)c1ccc(Cl)cc1 (stereo unspecified) + Cc1nc(NC(=O)N2CCCC2C(N)=O)sc1-c1ccnc(C(C)(C)C(F)(F)F)c1 noted as 93.3

Looking up Cn1ncc(Cl)c1-c1cc(C(=O)NC(CN)Cc2cccc(F)c2)sc1Cl (stereo unspecified) + CC(Nc1ncnc2nc[nH]c12)c1cc2cccc(Cl)c2c(=O)n1-c1ccccc1 , I see its viability, T/C listed as 88.2

For record CCCS(=O)(=O)Nc1ccc(F)c(C(=O)c2c[nH]c3ncc(-c4ccc(Cl)cc4)cc23)c1F + CC(Nc1ccc2c(c1)OCCn1cc(N3C(=O)OCC3C(F)F)nc1-2)C(N)=O the listed viability, T/C is 104
